Data origin: PubChem BioAssay (NCATS)

System: SKOV3
Assay Details: Primary qHTS to identify gynecologic anti-cancer compounds using libraries of approved drugs and bioactive compounds (AID 1345084); further: nearly all actives have a fitted effect of over 55% in size; further: potency means the concentration at half of the fitted maximal effect
Condition Parameters: Gynecologic cancer cell panel viability, ATPlite luminescence, 48 h; series mostly up to 57.5 µM
Inconclusive results are not listed. Calls of active or inactive are those of the source. The call rests on the fitted dose curve; in most records, active means well fitted cell-killing curve with a large enough effect; inconclusive means small, poorly fitted or top-dose-only effect, or effect the other way; inactive means flat fitted curve, though single readings scatter.
Experimental Readout: Potency

Below: 4 compounds and their reported Potency.
entry_smiles=CC[C@H](CC#N)OC(=O)N[C@@H](C)c1cccc(NC(=O)Nc2ccc(-c3cnco3)c(OC)c2)c1 result_value="6.31 µM (active)"
entry_smiles=CN(C)CCCNC(=O)c1ccc(-c2cc(O)c3ncccc3c2)cc1 result_value=inactive
entry_smiles=CN(C)CCN(Cc1ccc(Cl)cc1)c1ccccn1 result_value=inactive
entry_smiles=OC[C@H]1O[C@@H](OCCc2ccc(O)cc2)[C@H](O)[C@@H](O)[C@H]1O result_value=inactive

Please find the next compound below.
Q) For the compound `O=C(c1ccc(C(=O)N2CCC(N3CCCC3)CC2)c(Nc2ccccc2)c1)N1CCC(N2CCCC2)CC1` , give its reported Potency.
A) inactive

* * *

Assay Details: Quantitative High-Throughput drug screen in 47 multiple myeloma cell lines against the NCATS MIPE library collection: Karpas620_DSMZ cell viability assay (AID 1918959);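 further: 100% = DMSO-only wells and 0% = cell-free media-only wells; nearly all actives have a fitted effect of over 30% in size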
Condition Parameters: Karpas620 myeloma viability, CellTiter-Glo ATP luminescence, 48 h; series mostly up to 45.8 µM
Results filed as inconclusive are left out. Calls of active or inactive are those of the source. Calls come from the whole dose curve; as a rule, active = well fitted cell-killing curve with a large enough effect; inconclusive = small, poorly fitted or top-dose-only effect, or effect the other way; inactive = no such curve, though single readings can be large or run the other way.
// one of 1.0 for active, 0.0 for inactive, no free text

molecule=Cc1cnc(CNC(=O)c2c(=O)c3ccc(N4CCCN(C)CC4)nc3n3c2sc2ccccc23)cn1 qualitative_label=0.0
molecule=C[C@@H]1CC=CC=CC=CC=C[C@@H](O[C@@H]2O[C@H](C)[C@@H](O)[C@H](N)[C@H]2O)C[C@@H]2O[C@](O)(C[C@@H](O)C[C@@H]3O[C@@H]3C=CC(=O)O1)C[C@H](O)[C@@H]2C(=O)O qualitative_label=0.0
molecule=CCCCC[C@H](O)C=C[C@H]1[C@H](O)CC(=O)[C@H]1CC=CCCCC(=O)O qualitative_label=0.0

Q) How was `COc1nccc(-c2c(-c3ccc(F)cc3)ncn2C2CCNCC2)n1` classified in this test?
A) 0.0

Q) // outcome(item) with item = `COc1cc(F)c(C(C)C)cc1-c1ccc(C(F)(F)F)cc1CN1C(=O)O[C@H](c2cc(C(F)(F)F)cc(C(F)(F)F)c2)[C@@H]1C`
A) 0.0

Q) For CC1=C(C(=O)Nc2cc3cn[nH]c3cc2F)C(c2ccc(C(F)(F)F)cc2)CC(=O)N1 (configuration not stated) , what call appears in the results of this test?
A) 0.0

* * *

Measured Target: Cytochrome P450 2D6 (Homo sapiens)
Assay Details: Cytochrome P450 family 2 subfamily D member 6 (CYP2D6) small molecule antagonists: luciferase biochemical (cell-free) qHTS assay (AID 1645840); further: nearly all actives have a fitted effect of over 55% in size; further: potency means the concentration at half of the fitted maximal effect
Condition Parameters: P450-Glo CYP2D6 enzyme, luciferin luminescence, 1 h; series mostly up to 57.4 µM
Results filed as inconclusive are left out. Calls of active or inactive are those of the source. Calls come from the whole dose curve; as a rule, active = well fitted inhibition curve with a large enough effect in the repeat runs; inconclusive = weak or mixed curves; inactive = flat fitted curve, though single readings scatter.
Experimental Readout: Potency

molecule=COc1ccc(CCC(=O)Nc2nc3ccc(Cl)cc3s2)cc1OC result_value=inactive
molecule="CN1[C@H]2CC[C@H]1CC(OC(=O)c1c[nH]c3ccccc13)C2 (stereo not given in full)" result_value="12 µM (active)"
molecule=CC(C)C[C@@H](C(=O)N[C@H](C(=O)OC1CCCC1)c1ccccc1)[C@H](O)C(=O)NO result_value=inactive
molecule=Cc1cn([C@@H]2C[C@@H](O)[C@H](CO)O2)c(=O)[nH]c1=O result_value=inactive

Turning now to a further record.
Q) Write down the reported Potency (system: Cytochrome P450 2D6 (Homo sapiens)) of `NS(=O)(=O)c1ccc(Nc2nc(OCC3CCCCC3)c3[nH]cnc3n2)cc1`
A) 19 µM (active)

* * *

Assay Details: Quantitative High-Throughput drug screen in 47 multiple myeloma cell lines against the NCATS MIPE library collection: JJN3_DSMZ cell viability assay (AID 1918966; further: nearly all actives have a fitted effect of over 50% in size)
Condition Parameters: JJN3 myeloma cells viability, CellTiter-Glo ATP, 48 h; series mostly up to 45.8 µM
Records with an inconclusive call do not appear. Calls of active or inactive are those of the source. Calls follow the shape of the dose curve; as a rule, active = well fitted cell-killing curve with a large enough effect; inconclusive = small, poorly fitted or top-dose-only effect, or effect the other way; inactive = no such curve, though single readings can be large or run the other way.
Can you answer with just one of these options? class 1 (active), class 0 (inactive)

Worked examples, 5 compounds total:
compound=CC[C@]1(O)C[C@H]2CN(CCC3=c4ccccc4=N[C]3[C@@](C(=O)OC)(c3cc4c(cc3OC)N(C)[C@H]3[C@@](O)(C(N)=O)[C@H](O)[C@]5(CC)C=CCN6CC[C@]43[C@@H]65)C2)C1 qualitative_label="class 1"
compound=CC1(COc2ccc3c(c2)ncn3-c2ccc3cccc(N4CCC(N)CC4)c3n2)COC1 qualitative_label="class 1"
compound=Oc1cc(O)cc(C=Cc2ccc(O)c(O)c2)c1 qualitative_label="class 1"
compound=COC(=O)Nc1ccc(-c2nc(N3CCOCC3)c3cnn(C4CCN(C(=O)OC)CC4)c3n2)cc1 qualitative_label="class 1"
compound="CCC(C)SSc1ncc[nH]1 (centres undefined)" qualitative_label="class 1"

Q) Assay outcome for CCCCCOC(=O)Nc1nc(=O)n([C@@H]2O[C@H](C)[C@@H](O)C2O)cc1F (some centres undefined) : what was it?
A) class 0

Q) Answer briefly: the call reported for `CC(C)(C)c1nc(-c2cccc(NS(=O)(=O)c3c(F)cccc3F)c2F)c(-c2ccnc(N)n2)s1` in this assay.
A) class 1

Q) What outcome does the record of this test show for `Cc1ccc(C(=O)N(CCCN)[C@@H](c2oc3cc(Cl)ccc3c(=O)c2Cc2ccccc2)C(C)C)cc1` ?
A) class 1

Q) Answer briefly: the call reported for CC1=C(CC(=O)O)c2cc(F)ccc2C1=Cc1ccc(S(C)=O)cc1 (centres undefined) in this assay.
A) class 1

* * *

Assay Details: Quantitative High-Throughput drug screen in 47 multiple myeloma cell lines against the NCATS MIPE library collection: OCIMY1_PLB cell viability assay (AID 1918979); further: nearly all actives have a fitted effect of over 35% in size;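 on viability: 100% = DMSO-only wells and 0% = cell-free media-only wells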
Condition Parameters: OCI-MY1 myeloma viability, CellTiter-Glo ATP, 48 h; series mostly up to 45.8 µM
Inconclusive results are not listed. The source made the active and inactive calls. Calls follow the shape of the dose curve; as a rule, active = well fitted cell-killing curve with a large enough effect; inconclusive = small, poorly fitted or top-dose-only effect, or effect the other way; inactive = no such curve, though single readings can be large or run the other way.
Please state which outcome applies, choosing from true (1) for active, false (0) for inactive

Solved entries (count: 9):
molecule=CCC=CC[C@H]1C(=O)CC[C@@H]1CC(=O)OC qualitative_label="false (0)"
molecule=NC(=O)c1ncn([C@@H]2O[C@H](CO)[C@@H](O)[C@@H]2O)n1 qualitative_label="false (0)"
molecule=CN(C)CCOc1ccc(C(=C(CCCl)c2ccccc2)c2ccccc2)cc1 qualitative_label="false (0)"
molecule=N=C1SC(=Cc2ccc(-c3ccc4c(c3)C(=O)NC4=O)o2)C(=O)N1c1ccc(Br)cc1 qualitative_label="true (1)"
molecule=O=C1NC(=O)C(=Cc2ccc(-c3ccc(F)cc3O)o2)S1 qualitative_label="false (0)"
molecule=CCOc1ccccc1N=Nc1c(C)[nH]n(-c2nc(-c3ccccc3)cs2)c1=O qualitative_label="true (1)"
molecule=COc1cc2nc(-c3cc(F)ccc3O)nc(N[C@@H]3CNC[C@@H]3C(C)(C)O)c2cc1OC qualitative_label="true (1)"
molecule=N#CC1(c2cccc(C(=O)Nc3cc(Oc4ccc5nc(NC(=O)C6CC6)sc5n4)ccc3F)c2Cl)CC1 qualitative_label="true (1)"
molecule="COc1ccnc(CS(=O)c2nc3ccc(OC(F)F)cc3[nH]2)c1OC (stereo not given)" qualitative_label="false (0)"

Q) Which outcome was entered for the molecule `CC(C)(O)CC(=O)NCCn1ccc2ncnc(Nc3ccc(Oc4cccc(C(F)(F)F)c4)c(Cl)c3)c21` in this test?
A) false (0)

* * *

Answer each item with its documented cell viability, % of control (lower = more cytotoxic).
Assay Details: High-throughput drug toxicity screening in the BPDCN cell line Gen2.2 (AID 1224824);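 further: cells exposed to compounds for 48 h before reading; 100% = DMSO and 0% = bortezomib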
Condition Parameters: Gen2.2 BPDCN cells; at 45.8 µM (top of the series) unless noted
Answers are plain numbers, in %.

Hi there! I need cell viability, % of control (lower = more cytotoxic) for each item below, if you can.
1. CCNC(=O)CCCC=CC[C@@H]1[C@H](C=CC(O)CCc2ccccc2)[C@@H](O)C[C@@H]1O (some centres undefined)
2. N#CC(=C1Nc2ccccc2S1)c1ccnc(OCc2ccc(CN3CCOCC3)cc2)n1
3. COc1ccc(CCC(=O)Nc2nc3ccc(Cl)cc3s2)cc1OC

A)
108
5.77
135

* * *

System: Zika virus NS2B-NS3 protease
Assay Details: Primary screen GU AMC qHTS for Zika virus inhibitors (AID 1347154); further: nearly all actives have a fitted effect of over 70% in size
Condition Parameters: Zika NS2B-NS3 unlinked protease, AMC fluorogenic substrate; series mostly up to 54.1 µM
Results filed as inconclusive are left out. The source made the active and inactive calls. Calls come from the whole dose curve; as a rule, active = well fitted inhibition curve with a large enough effect; inconclusive = small, poorly fitted or top-dose-only effect; inactive = flat fitted curve, though single readings scatter.
Field 'call' accepts Yes (active), No (inactive)

Some solved cases for reference:
compound=COc1cc2nccc(Oc3ccc(NC(=O)Nc4cc(C)on4)c(Cl)c3)c2cc1OC qualitative_label=No
compound=O=C(Nc1cccc2c(=O)cc(-c3nn[nH]n3)oc12)c1ccc(OCCCCc2ccccc2)cc1 qualitative_label=Yes
compound=NC(=O)c1nnn(Cc2cc(Cl)c(C(=O)c3ccc(Cl)cc3)c(Cl)c2)c1N qualitative_label=No
compound=COc1ccc2ccc(=O)oc2c1CC=C(C)C qualitative_label=No
compound=O=C(NCCCCN1CCOCC1)c1cc2ccccc2o1 qualitative_label=No
compound=N#Cc1c(N(CC(=O)O)CC(=O)O)sc(C(=O)O)c1CC(=O)O qualitative_label=No

Q) Per the assay record, what outcome was assigned to CCCCN(CCCC)CC(O)c1cc(Cl)cc2c1-c1ccc(Cl)cc1C2=Cc1ccc(Cl)cc1 (stereo not drawn) ?
A) No

Q) Just curious, what result did `O=c1[nH]c(=O)n([C@H]2C[C@@H](O)[C@@H](CO)O2)cc1I` get here?
A) No

Q) What did the test return for `C=CCc1cccc(C=NNC(=O)CN2CCN(Cc3ccccc3)CC2)c1O` ?
A) No

Q) Each compound tested received a call. Report the one for `Cc1cnc(-c2cc(N3CCN(C(=O)CCS(C)(=O)=O)CC3)ncc2Cl)c(C)c1` .
A) No

Q) Hi, sorry to bother you, what did the test record for CCCCC(C=O)NC(=O)C(CC(C)C)NC(=O)OCc1ccccc1 (stereo not drawn) ?
A) No

Q) For this compound, state the assay outcome: `COc1cc2c(cc1OC)CC(=O)N(CCCN(C)C[C@H]1Cc3cc(OC)c(OC)cc31)CC2`
A) No

Q) Look up the recorded call for `CNC(=O)[C@H](Cc1ccccc1)NC(=O)[C@H](CC(C)C)[C@H](CSc1cccs1)C(=O)NO` in this test.
A) No

Q) In this assay, the call recorded for COc1nccc(-c2c(-c3ccc(F)cc3)ncn2C2CCC(O)CC2)n1 (stereo not drawn) was what?
A) No
